List of Bliss excess values.
- Test system: TOV-21G (Ovarian Carcinoma);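 also: after 72 h of two-drug dosing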
- assay_overview: Bliss excess, mean over the matrix (fraction); higher = more synergy
Returns: the value as a bare number; no unit string appended.

COc1nnc2ccc(N3CCC(c4ccc(OCCN5CCN(C)C(=O)[C@H]5C)cc4)CC3)nn12 [AZD5153] + C=CCn1c(=O)c2cnc(Nc3ccc(N4CCN(C)CC4)cc3)nc2n1-c1cccc(C(C)(C)O)n1 [AZD1775] (first compound max 1 µM, partner max 1 µM) : -0.0246

Continue with the next compound.
Looking up C=CCn1c(=O)c2cnc(Nc3ccc(N4CCN(C)CC4)cc3)nc2n1-c1cccc(C(C)(C)O)n1 [AZD1775] + O=C(c1cc(Cc2n[nH]c(=O)c3ccccc23)ccc1F)N1CCN(C(=O)C2CC2)CC1 [Olaparib] (first compound max 1 µM, partner max 10 µM) , I found its Bliss excess recorded as -0.0126
